Biological target: Bromodomain testis-specific protein (Homo sapiens)
Assay: Binding affinity to human partial length BRDT BD2 (K250 to E382 residues) expressed in bacterial expression system using H4K5acIC8acK12acK16ac-biotinylated peptide as substrate preincubated for 30 mins followed by substrate addition by AlphaScreen assay
OBSERVED_PROPERTY: IC50
Quote the value and follow it with the unit of measurement.

The molecule listed as `CC(=O)OC[C@]12CC[C@H]3[C@@H](C[C@H]4O[C@]45CC=CC(=O)[C@]35C)[C@]1(O)CC[C@@]2(O)[C@@](C)(O)[C@H]1CC(C)=C(C)C(=O)O1` shows IC50 equal to 119 nM

###

Target: Bromodomain-containing protein 4 (Homo sapiens, UniProt O60885)
Assay: Inhibition of BRD4-BD2 (unknown origin) by fluorescence polarization assay
OBSERVED_PROPERTY: pIC50
Here pIC50 is given on a logarithmic scale as minus log10 of the concentration in mol/L.

Here's what some known entries look like.
The compound listed as `CC(=O)OC[C@]12CC[C@H]3[C@@H](C[C@H]4O[C@]45CCCC(=O)[C@]35C)[C@]1(O)CC[C@@]2(O)[C@@](C)(O)[C@H]1CC(C)=C(C)C(=O)O1` shows pIC50 equal to 5.04

The compound listed as `CC(=O)OC[C@]12CC[C@H]3[C@@H](CC=C4C=CCC(=O)[C@@]43C)[C@]1(O)CC[C@@]2(O)[C@@](C)(O)[C@H]1CC(C)=C(C)C(=O)O1` shows pIC50 equal to 6.53

Now look at this one.
The compound listed as `CC(=O)OC[C@]12CC[C@H]3[C@@H](C[C@@H]4O[C@@]45CC=CC(=O)[C@]35C)[C@]1(O)CC[C@@]2(O)[C@@](C)(O)[C@H]1CC(C)=C(C)C(=O)O1` shows pIC50 equal to 4.97

###

compounds and their reported EC50
System: VCaP
Experiment: Antiproliferative activity against AR-positive human VCaP cells assessed as reduction in cell viability measured after 72 hrs by MTS assay
Type: functional, cell-based
State just the number; it will be interpreted in nM.

Here's what some known entries look like.
The compound listed as `Cc1sc2c(c1C)C(c1ccc(Cl)cc1)=N[C@@H](CC(=O)OC(C)(C)C)c1nnc(C)n1-2` shows EC50 equal to 160

The compound listed as `COc1cccc2c1C(=O)c1c(O)c3c(c(O)c1C2=O)C[C@@](O)(C(=O)CO)C[C@@H]3O[C@H]1C[C@H](N)[C@H](O)[C@H](C)O1` shows EC50 equal to 670

The compound listed as `CC1=C(CO)C[C@H]([C@](C)(O)[C@]2(O)CC[C@@]3(O)[C@@H]4C[C@H]5O[C@]56CC=CC(=O)[C@]6(C)[C@H]4CC[C@]23C)OC1=O` shows EC50 equal to 1110

Further cases:
The compound listed as `CC(=O)OC[C@]12CC[C@H]3[C@@H](C[C@H]4O[C@]45CC=CC(=O)[C@]35C)[C@]1(O)CC[C@@]2(O)[C@@](C)(O)[C@H]1CC(C)=C(C)C(=O)O1` shows EC50 equal to 30.5

###

compounds and their reported EC50 at 72 h
Assay: Cytotoxicity against human WI-38 cells assessed as reduction in cell viability measured after 72 hrs by MTS assay
Assay type: toxicity, cell-based

Here's what some known entries look like.
The compound listed as `CC(=O)OC[C@]12CC[C@H]3[C@@H](C[C@H]4O[C@]45CC=CC(=O)[C@]35C)[C@]1(O)[C@@H](OC(C)=O)C[C@@]2(O)[C@@](C)(O)[C@H]1CC(C)=C(C)C(=O)O1` shows EC50 at 72 h equal to > 5000 nM

The compound listed as `CC1=C(CO)C[C@H]([C@](C)(O)[C@]2(O)CC[C@@]3(O)[C@@H]4C[C@H]5O[C@]56CC=CC(=O)[C@]6(C)[C@H]4CC[C@]23C)OC1=O` shows EC50 at 72 h equal to > 5000 nM

Now look at this one.
The compound listed as `COc1cccc2c1C(=O)c1c(O)c3c(c(O)c1C2=O)C[C@@](O)(C(=O)CO)C[C@@H]3O[C@H]1C[C@H](N)[C@H](O)[C@H](C)O1` shows EC50 at 72 h equal to 800 nM

###

Biological target: Bromodomain-containing protein 3 (Homo sapiens, UniProt Q15059)
Sequence (Q15059 whole entry): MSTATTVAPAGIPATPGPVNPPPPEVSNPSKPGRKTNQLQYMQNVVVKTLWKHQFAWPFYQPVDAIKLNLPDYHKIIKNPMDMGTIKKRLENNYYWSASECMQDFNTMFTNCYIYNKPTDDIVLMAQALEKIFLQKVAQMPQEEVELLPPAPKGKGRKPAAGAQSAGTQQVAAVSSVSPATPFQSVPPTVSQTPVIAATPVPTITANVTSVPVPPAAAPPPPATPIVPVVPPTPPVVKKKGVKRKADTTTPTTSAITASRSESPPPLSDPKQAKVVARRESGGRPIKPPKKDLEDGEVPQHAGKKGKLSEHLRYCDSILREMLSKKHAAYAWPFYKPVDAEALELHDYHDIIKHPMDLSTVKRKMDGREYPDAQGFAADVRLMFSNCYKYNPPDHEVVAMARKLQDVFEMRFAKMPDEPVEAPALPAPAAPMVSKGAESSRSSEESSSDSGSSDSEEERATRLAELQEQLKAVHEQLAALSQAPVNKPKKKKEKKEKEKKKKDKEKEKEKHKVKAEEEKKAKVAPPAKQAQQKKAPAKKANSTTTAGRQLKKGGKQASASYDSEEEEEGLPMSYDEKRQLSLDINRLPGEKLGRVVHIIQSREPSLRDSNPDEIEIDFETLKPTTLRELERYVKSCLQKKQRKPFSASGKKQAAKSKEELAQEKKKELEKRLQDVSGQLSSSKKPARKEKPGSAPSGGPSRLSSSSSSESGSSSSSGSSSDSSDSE
Test: Binding affinity to 6His-tagged BRD3-BD2 (unknown origin) by MST assay
OBSERVED_PROPERTY: Kd (nM)
State just the number; it will be interpreted in nM.

The compound listed as `CC(=O)OC[C@]12CC[C@H]3[C@@H](C[C@H]4O[C@]45CC=CC(=O)[C@]35C)[C@]1(O)CC[C@@]2(O)[C@@](C)(O)[C@H]1CC(C)=C(C)C(=O)O1` shows Kd equal to 149

###

molecules and their reported pIC50
Target: Bromodomain-containing protein 3 (Homo sapiens, UniProt Q15059)
Assay: Inhibition of BRD3-BD2 (unknown origin) by fluorescence polarization assay
Here pIC50 is given on a logarithmic scale as minus log10 of the concentration in mol/L.

Here's what some known entries look like.
The molecule listed as `CC(=O)OC[C@]12CC[C@H]3[C@@H](C[C@@H]4O[C@@]45CC=CC(=O)[C@]35C)[C@]1(O)CC[C@@]2(O)[C@@](C)(O)[C@H]1CC(C)=C(C)C(=O)O1` shows pIC50 equal to 5.37

The molecule listed as CC1=C(C)C(=O)O[C@@H]([C@](C)(O)[C@]2(O)CC[C@@]3(O)[C@@H]4C[C@H]5O[C@]56CC=CC(=O)[C@]6(C)[C@H]4CC[C@]23C)C1 [WITHANOLIDE E] shows pIC50 equal to 6.14

The molecule listed as `CC(=O)OC[C@]12CC[C@H]3[C@@H](CC=C4CC=CC(=O)[C@@]43C)[C@]1(O)CC[C@@]2(O)[C@@](C)(O)[C@H]1CC(C)=C(C)C(=O)O1` shows pIC50 equal to 4.80

The molecule listed as `CC(=O)OC[C@]12CC[C@H]3[C@@H](C[C@H]4O[C@]45CC=CC(=O)[C@]35C)[C@]1(O)[C@@H](OC(C)=O)C[C@@]2(O)[C@@](C)(O)[C@H]1CC(C)=C(C)C(=O)O1` shows pIC50 equal to 5.22

Further cases:
The molecule listed as `CC(=O)OC[C@]12CC[C@H]3[C@@H](C[C@H]4O[C@]45CCCC(=O)[C@]35C)[C@]1(O)CC[C@@]2(O)[C@@](C)(O)[C@H]1CC(C)=C(C)C(=O)O1` shows pIC50 equal to 4.98

The molecule listed as `CC(=O)OC[C@]12CC[C@H]3[C@@H](CC=C4C=CCC(=O)[C@@]43C)[C@]1(O)CC[C@@]2(O)[C@@](C)(O)[C@H]1CC(C)=C(C)C(=O)O1` shows pIC50 equal to 6.88

The molecule listed as `CC(=O)OC[C@]12CC[C@H]3[C@@H](C[C@H]4O[C@]45CC=CC(=O)[C@]35C)[C@]1(O)CC[C@@]2(O)[C@@](C)(O)[C@H]1C[C@]2(C)O[C@]2(C)C(=O)O1` shows pIC50 equal to 6.12

###

System: DU-145
Assay: Antiproliferative activity against AR-negative human DU-145 cells assessed as reduction in cell viability measured after 72 hrs by MTS assay
Details: DU-145, 72 h
OBSERVED_PROPERTY: EC50 (nM)
State just the number; it will be interpreted in nM.

The molecule listed as `CC(=O)OC[C@]12CC[C@H]3[C@@H](C[C@H]4O[C@]45CC=CC(=O)[C@]35C)[C@]1(O)CC[C@@]2(O)[C@@](C)(O)[C@H]1C[C@]2(C)O[C@]2(C)C(=O)O1` shows EC50 equal to 1470

Now look at this one.
The molecule listed as `CC(=O)OC[C@]12CC[C@H]3[C@@H](C[C@H]4O[C@]45CC=CC(=O)[C@]35C)[C@]1(O)CC[C@@]2(O)[C@@](C)(O)[C@H]1CC(C)=C(C)C(=O)O1` shows EC50 equal to 263

###

Molecular target: Bromodomain-containing protein 3 (Homo sapiens, UniProt Q15059)
Assay: Binding affinity to 6His-tagged BRD3-BD1 (unknown origin) by MST assay
OBSERVED_PROPERTY: pKd
Here pKd is given on a logarithmic scale as minus log10 of the concentration in mol/L.

The compound listed as `CC(=O)OC[C@]12CC[C@H]3[C@@H](C[C@H]4O[C@]45CC=CC(=O)[C@]35C)[C@]1(O)CC[C@@]2(O)[C@@](C)(O)[C@H]1CC(C)=C(C)C(=O)O1` shows pKd equal to 7.85

###

compounds and their reported EC50 at 72 h
Test: Cytotoxicity against HFF cells assessed as reduction in cell viability measured after 72 hrs by MTS assay
Assay type: toxicity, cell-based
Conditions: human

The compound listed as `CC(=O)OC[C@]12CC[C@H]3[C@@H](CC=C4C=CCC(=O)[C@@]43C)[C@]1(O)CC[C@@]2(O)[C@@](C)(O)[C@H]1CC(C)=C(C)C(=O)O1` shows EC50 at 72 h equal to > 3000 nM

The compound listed as `C[C@H]1C[C@H]([C@](C)(O)[C@]2(O)CC[C@@]3(O)[C@@H]4C[C@H]5O[C@]56CC=CC(=O)[C@]6(C)[C@H]4CC[C@]23C)OC(=O)[C@@H]1C` shows EC50 at 72 h equal to > 2000 nM

The compound listed as `CC1=C(CO)C(=O)O[C@@H]([C@@H](C)[C@H]2CC[C@H]3[C@@H]4C[C@H]5O[C@]56[C@@H](O)C=CC(=O)[C@]6(C)[C@H]4CC[C@]23C)C1` shows EC50 at 72 h equal to > 6800 nM

The compound listed as `CC(=O)OC[C@]12CC[C@H]3[C@@H](C[C@H]4O[C@]45CC=CC(=O)[C@]35C)[C@]1(O)CC[C@@]2(O)[C@@](C)(O)[C@H]1C[C@@H](C)[C@@H](C)C(=O)O1` shows EC50 at 72 h equal to > 2000 nM

The compound listed as `CC(=O)OC[C@]12CC[C@H]3[C@@H](C[C@H]4O[C@]45CC=CC(=O)[C@]35C)[C@]1(O)CC[C@@]2(O)[C@@](C)(O)[C@H]1CC(C)=C(C)C(=O)O1` shows EC50 at 72 h equal to > 2000 nM
